- target.desc: lectin PA-IL (Pseudomonas aeruginosa, UniProt Q05097)
- Construct: made in house; host or cells: Escherichia coli BL21(DE3)
- Sequence (Q05097 2-122): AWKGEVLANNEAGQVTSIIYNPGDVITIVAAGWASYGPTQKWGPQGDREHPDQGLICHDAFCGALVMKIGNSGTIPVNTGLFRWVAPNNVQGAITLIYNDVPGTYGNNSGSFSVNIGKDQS
- procedure.details: Hemagglutination inhibition assay (HIA) with microscope detection
- Assay type: biochemical
- study.conditions: HIA; standard D-galactose
Answer each item with its documented Potency (MIC of standard/MIC of inhibitor).
One number for each entry.

Would you please look over these solved cases?
[
  {
    "compound": "COC(=O)c1cc(OCc2cn(CCn3cc(CO[C@@H]4O[C@H](CO)[C@H](O)[C@H](O)[C@H]4O)nn3)nn2)c(OCc2cn(CCn3cc(CO[C@@H]4O[C@H](CO)[C@H](O)[C@H](O)[C@H]4O)nn3)nn2)c(OCc2cn(CCn3cc(CO[C@@H]4O[C@H](CO)[C@H](O)[C@H](O)[C@H]4O)nn3)nn2)c1",
    "experimental.result": 64
  },
  {
    "compound": "OC[C@H]1O[C@@H](OCc2cn(CCn3cc(COCC(COCc4cn(CCn5cc(CO[C@@H]6O[C@H](CO)[C@H](O)[C@H](O)[C@H]6O)nn5)nn4)(COCc4cn(CCn5cc(CO[C@@H]6O[C@H](CO)[C@H](O)[C@H](O)[C@H]6O)nn5)nn4)COCc4cn(CCn5cc(CO[C@@H]6O[C@H](CO)[C@H](O)[C@H](O)[C@H]6O)nn5)nn4)nn3)nn2)[C@H](O)[C@@H](O)[C@H]1O",
    "experimental.result": 128
  },
  {
    "compound": "OC[C@H]1O[C@@H](OCc2cn(CCOCCOCCOCCn3cc(COCC(COCc4cn(CCOCCOCCOCCn5cc(CO[C@@H]6O[C@H](CO)[C@H](O)[C@H](O)[C@H]6O)nn5)nn4)(COCc4cn(CCOCCOCCOCCn5cc(CO[C@@H]6O[C@H](CO)[C@H](O)[C@H](O)[C@H]6O)nn5)nn4)COCc4cn(CCOCCOCCOCCn5cc(CO[C@@H]6O[C@H](CO)[C@H](O)[C@H](O)[C@H]6O)nn5)nn4)nn3)nn2)[C@H](O)[C@@H](O)[C@H]1O",
    "experimental.result": 256
  },
  {
    "compound": "O=C[C@H](O)[C@@H](O)[C@@H](O)[C@H](O)CO [D-galactose, reference compound]",
    "experimental.result": 1
  }
]

(Q) Given `COC(=O)c1cc(OCc2cn(CCOCCOCCOCCn3cc(CO[C@@H]4O[C@H](CO)[C@H](O)[C@H](O)[C@H]4O)nn3)nn2)c(OCc2cn(CCOCCOCCOCCn3cc(CO[C@@H]4O[C@H](CO)[C@H](O)[C@H](O)[C@H]4O)nn3)nn2)c(OCc2cn(CCOCCOCCOCCn3cc(CO[C@@H]4O[C@H](CO)[C@H](O)[C@H](O)[C@H]4O)nn3)nn2)c1` , state its recorded Potency (MIC of standard/MIC of inhibitor).
(A) 128

###

- target.desc: lectin PA-IL (Pseudomonas aeruginosa, UniProt Q05097)
- Construct: made in house; host or cells: Escherichia coli BL21(DE3)
- procedure.details: Isothermal titration microcalorimetry (ITC)
- Type: binding
- study.conditions: ITC, 25 °C, calculated from −RT ln Ka
- Protocol: All the experiments were performed on MicroCal iTC200 (Malvern Instruments, Malvern, UK) at 25 °C. […] Integrated heat effects were analyzed by global fitting of data obtained from three independent titrations for each tested compound by non-linear regression using a single site-binding model (Microcal Origin 7, Malvern Instruments, Malvern, UK). […] Two titration experiments were performed and the heat responses were processed and evaluated as mentioned above.
observation.type: ΔG (kcal/mol)
Answers are plain numbers, in kcal/mol.

[
  {
    "molecule": "OC[C@H]1O[C@@H](OCc2cn(CCOCCOCCOCCn3cc(COCC(COCc4cn(CCOCCOCCOCCn5cc(CO[C@@H]6O[C@H](CO)[C@H](O)[C@H](O)[C@H]6O)nn5)nn4)(COCc4cn(CCOCCOCCOCCn5cc(CO[C@@H]6O[C@H](CO)[C@H](O)[C@H](O)[C@H]6O)nn5)nn4)COCc4cn(CCOCCOCCOCCn5cc(CO[C@@H]6O[C@H](CO)[C@H](O)[C@H](O)[C@H]6O)nn5)nn4)nn3)nn2)[C@H](O)[C@@H](O)[C@H]1O",
    "ΔG, kcal/mol": -8.8
  }
]

I would be grateful if you could provide ΔG for each of the following entries.
1. COC(=O)c1cc(OCc2cn(CCOCCOCCOCCn3cc(CO[C@@H]4O[C@H](CO)[C@H](O)[C@H](O)[C@H]4O)nn3)nn2)c(OCc2cn(CCOCCOCCOCCn3cc(CO[C@@H]4O[C@H](CO)[C@H](O)[C@H](O)[C@H]4O)nn3)nn2)c(OCc2cn(CCOCCOCCOCCn3cc(CO[C@@H]4O[C@H](CO)[C@H](O)[C@H](O)[C@H]4O)nn3)nn2)c1
2. COC(=O)c1cc(OCc2cn(CCn3cc(CO[C@@H]4O[C@H](CO)[C@H](O)[C@H](O)[C@H]4O)nn3)nn2)c(OCc2cn(CCn3cc(CO[C@@H]4O[C@H](CO)[C@H](O)[C@H](O)[C@H]4O)nn3)nn2)c(OCc2cn(CCn3cc(CO[C@@H]4O[C@H](CO)[C@H](O)[C@H](O)[C@H]4O)nn3)nn2)c1
3. OC[C@H]1O[C@@H](OCc2cn(CCn3cc(COCC(COCc4cn(CCn5cc(CO[C@@H]6O[C@H](CO)[C@H](O)[C@H](O)[C@H]6O)nn5)nn4)(COCc4cn(CCn5cc(CO[C@@H]6O[C@H](CO)[C@H](O)[C@H](O)[C@H]6O)nn5)nn4)COCc4cn(CCn5cc(CO[C@@H]6O[C@H](CO)[C@H](O)[C@H](O)[C@H]6O)nn5)nn4)nn3)nn2)[C@H](O)[C@@H](O)[C@H]1O

(A)
1. -8.32
2. -8.29
3. -9.11

(Q) Given O=C[C@H](O)[C@@H](O)[C@@H](O)[C@H](O)CO [D-galactose, reference compound] , state its recorded ΔG.
(A) -5.23
